biological target: RET (human) (UniProt P07949); assay: KINOMEscan competition binding; settings: compound 10.0 µM
Sequence (P07949 whole entry, looked up): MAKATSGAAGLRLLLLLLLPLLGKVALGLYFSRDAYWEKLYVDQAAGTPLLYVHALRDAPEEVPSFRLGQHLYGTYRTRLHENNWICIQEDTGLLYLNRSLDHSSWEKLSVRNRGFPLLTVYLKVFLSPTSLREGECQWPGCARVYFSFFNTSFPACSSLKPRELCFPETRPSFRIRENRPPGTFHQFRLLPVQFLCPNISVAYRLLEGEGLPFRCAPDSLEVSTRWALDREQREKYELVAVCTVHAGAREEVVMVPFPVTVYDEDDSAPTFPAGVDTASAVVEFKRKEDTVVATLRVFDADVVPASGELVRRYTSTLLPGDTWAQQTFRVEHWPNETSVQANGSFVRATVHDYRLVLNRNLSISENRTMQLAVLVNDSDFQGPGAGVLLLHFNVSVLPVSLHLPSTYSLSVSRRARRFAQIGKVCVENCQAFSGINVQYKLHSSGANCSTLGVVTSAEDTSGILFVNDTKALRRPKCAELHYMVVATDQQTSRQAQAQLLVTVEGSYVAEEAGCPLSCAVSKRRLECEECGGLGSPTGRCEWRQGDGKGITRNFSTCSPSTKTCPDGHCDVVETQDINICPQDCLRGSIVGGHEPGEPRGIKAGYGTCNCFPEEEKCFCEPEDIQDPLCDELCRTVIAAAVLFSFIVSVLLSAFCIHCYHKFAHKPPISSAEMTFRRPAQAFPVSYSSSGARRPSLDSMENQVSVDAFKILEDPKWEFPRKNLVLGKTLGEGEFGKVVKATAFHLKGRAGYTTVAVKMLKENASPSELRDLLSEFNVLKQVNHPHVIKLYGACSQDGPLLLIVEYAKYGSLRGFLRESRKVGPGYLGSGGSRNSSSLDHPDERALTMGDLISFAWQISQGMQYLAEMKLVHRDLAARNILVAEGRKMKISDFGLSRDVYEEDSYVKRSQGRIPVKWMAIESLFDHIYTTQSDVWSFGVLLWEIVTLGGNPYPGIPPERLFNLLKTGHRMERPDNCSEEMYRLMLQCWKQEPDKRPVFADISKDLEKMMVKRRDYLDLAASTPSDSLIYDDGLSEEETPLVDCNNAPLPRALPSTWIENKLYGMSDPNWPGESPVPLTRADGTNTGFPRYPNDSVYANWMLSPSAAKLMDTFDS
Metric name: kinase still bound, per cent of control
Mention the unit after the number when you answer.

What value of kinase still bound, per cent of control has been recorded for this entry: `CN1C(=O)c2ccccc2N(C)c2nc(NS(=O)(=O)c3ccc(N)cc3)ncc21`
100%

What value of kinase still bound, per cent of control has been recorded for this entry: `COc1cc(N2CCC(O)CC2)ccc1Nc1ncc2c(n1)N1CCc3cccc(c31)C(=O)N2C`
100%

What value of kinase still bound, per cent of control has been recorded for this entry: `CN1C(=O)c2ccccc2N(C)c2nc(Nc3ccc(N4CCC(O)CC4)cc3)ncc21`
15%

What value of kinase still bound, per cent of control has been recorded for this entry: `CS(=O)(=O)Nc1ccc(-c2ncc(/C=C3\SC(=N)NC3=O)s2)cc1`
20%

What value of kinase still bound, per cent of control has been recorded for this entry: `CN1CCN(c2ccc(C(=O)Nc3ncc4c(n3)N(C)c3ccccc3C(=O)N4C)cc2)CC1`
100%

What value of kinase still bound, per cent of control has been recorded for this entry: `COc1cc(N2CCN(C)CC2)ccc1Nc1ncc2c(n1)N(C)c1sccc1C(=O)N2C`
85%

What value of kinase still bound, per cent of control has been recorded for this entry: `CCN1CCN(Cc2cc(NC(=O)c3cccc4cc(-c5ccc(/C=C6\SC(=O)NC6=O)o5)ccc34)cc(C(F)(F)F)c2)CC1`
4.6%

What value of kinase still bound, per cent of control has been recorded for this entry: `COc1cc(N2CCN(C)CC2)ccc1Nc1ncc2c(n1)N(C)c1ccccc1N(C)C2=O`
100%

What value of kinase still bound, per cent of control has been recorded for this entry: `O=C1NC(=O)/C(=C/c2c[nH]c(=O)c(-c3ccc(N4CCNCC4)nc3)c2)S1`
70%

What value of kinase still bound, per cent of control has been recorded for this entry: `COc1cc(N2CCN(C)CC2)ccc1Nc1ncc2c(n1)Nc1ccccc1NC2=O`
95%

---

Field: kinase still bound, per cent of control. Provide a value for each of the compounds that follow.
target: PRKD1 (human); assay: KINOMEscan competition binding; details: compound 10.0 µM
Mention the unit after the number when you answer.

What value of kinase still bound, per cent of control has been recorded for this entry: `CN1CCN(c2ccc(C(=O)Nc3ncc4c(n3)N(C)c3ccccc3C(=O)N4C)cc2)CC1`
100%

What value of kinase still bound, per cent of control has been recorded for this entry: COc1cc(C(=O)NC2CCN(C)CC2)ccc1Nc1ncc2c(n1)N(C1CCCC1)CC(C)C(=O)N2C (stereo not given)
34%

What value of kinase still bound, per cent of control has been recorded for this entry: COc1cc(N2CCN(C)CC2)ccc1Nc1ncc2c(n1)N(C1CCCC1)C(C)CC(=O)N2C (stereo not given)
24%

What value of kinase still bound, per cent of control has been recorded for this entry: `N=C1NC(=O)/C(=C/c2ccc(-c3ccccc3O)o2)S1`
26%

What value of kinase still bound, per cent of control has been recorded for this entry: `COc1cc(N2CCC(O)CC2)ccc1Nc1ncc2c(n1)N(C)c1ccccc1C(=O)N2C`
26%

What value of kinase still bound, per cent of control has been recorded for this entry: `CS(=O)(=O)Nc1ccc(-c2cc(/C=C3\SC(=N)NC3=O)c[nH]c2=O)cc1`
15%

What value of kinase still bound, per cent of control has been recorded for this entry: `CS(=O)(=O)Nc1ccc(-c2cncc(/C=C3\SC(=N)NC3=O)c2)cc1`
22%

What value of kinase still bound, per cent of control has been recorded for this entry: `N=C1NC(=O)/C(=C/c2c[nH]c(=O)c(-c3ccc(N4CCNCC4)nc3)c2)S1`
7%

What value of kinase still bound, per cent of control has been recorded for this entry: `N=C1NC(=O)/C(=C/c2ccc(-c3ccc(F)cc3O)o2)S1`
32%

What value of kinase still bound, per cent of control has been recorded for this entry: `CN1C(=O)c2ccccc2N(C)c2nc(Nc3ccc(N4CCC(O)CC4)cc3)ncc21`
98%

What value of kinase still bound, per cent of control has been recorded for this entry: `COc1cc(N2CCN(C)CC2)ccc1Nc1ncc2c(n1)N(C)c1ccccc1N(C)C2=O`
87%

What value of kinase still bound, per cent of control has been recorded for this entry: `COc1cc(N2CCN(C)CC2)ccc1Nc1ncc2c(n1)N(C)c1ccccc1C(=O)N2`
21%

What value of kinase still bound, per cent of control has been recorded for this entry: `N=C1NC(=O)/C(=C/c2ccc(-c3cncc4ccccc34)o2)S1`
16%

What value of kinase still bound, per cent of control has been recorded for this entry: `CN1C(=O)c2ccccc2N(C)c2nc(Nc3ccc(N4CCC(O)CC4)cn3)ncc21`
21%

What value of kinase still bound, per cent of control has been recorded for this entry: `COc1cc(N2CCN(C)CC2)ccc1Nc1ncc2c(n1)N1CCC[C@H]1CC(=O)N2`
29%

What value of kinase still bound, per cent of control has been recorded for this entry: `COc1cc(N2CCN(CCO)CC2)ccc1Nc1ncc2c(n1)N(C1CCCC1)CCC(=O)N2C`
29%

What value of kinase still bound, per cent of control has been recorded for this entry: `COc1cc(N2CCN(C)CC2)ccc1Nc1ncc2c(n1)N(C)c1sccc1C(=O)N2C`
12%

What value of kinase still bound, per cent of control has been recorded for this entry: `COc1cc(N2CCC(O)CC2)ccc1Nc1ncc2c(n1)N1CCc3cccc(c31)C(=O)N2C`
12%

What value of kinase still bound, per cent of control has been recorded for this entry: `COc1cc(N2CCN(C)CC2)ccc1Nc1ncc2c(n1)N(C)c1ccccc1C(=O)N2C`
3.8%

What value of kinase still bound, per cent of control has been recorded for this entry: `COc1cc(N2CCN(C)CC2)ccc1Nc1ncc2c(n1)N1CCC[C@H]1CC(=O)N2C`
15%

Values compiled from the kinase profiling compilation of Christmann-Franck et al. (2016).
